- Assay system: eIF2Bα (Homo sapiens, UniProt Q14232)
- Construct: made in house; host or cells: E. coli BL21(DE3)
- Sequence (Q14232 whole entry): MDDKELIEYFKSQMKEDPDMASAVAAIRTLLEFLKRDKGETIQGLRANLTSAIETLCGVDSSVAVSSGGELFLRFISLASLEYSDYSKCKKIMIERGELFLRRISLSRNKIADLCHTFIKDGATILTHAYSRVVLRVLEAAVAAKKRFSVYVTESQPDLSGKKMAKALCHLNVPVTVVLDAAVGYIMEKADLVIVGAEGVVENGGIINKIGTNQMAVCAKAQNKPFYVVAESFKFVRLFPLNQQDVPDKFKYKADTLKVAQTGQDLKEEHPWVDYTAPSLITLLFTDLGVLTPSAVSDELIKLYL
- Assay comment: MIDAS (mass spectrometry integrated with equilibrium dialysis) metabolite binding screen
- Assay context: MIDAS screen, sheet eIF2Ba; metabolites screened in pools 1-4; p-value and q-value given
Peptide text beside a SMILES is read from it.
# maps each entry to its log2(corrected fold change)

Compound: O=C(CO)[C@@H](O)[C@H](O)[C@H](O)CO
log2(corrected fold change): -0.09045
//
Compound: N[C@@H](Cc1c[nH]c2ccccc12)C(=O)O
log2(corrected fold change): 0.08785
//
Compound: O=C(O)[C@H](O)[C@@H](O)[C@H](O)[C@H](O)COP(=O)(O)O
log2(corrected fold change): -0.1601
//
Compound: Cn1cnc(C[C@H](N)C(=O)O)c1
log2(corrected fold change): -0.1945
//
Compound: OC[C@@H](O)[C@H](O)[C@H](O)[C@@H](O)CO
log2(corrected fold change): -0.4944
//
Compound: COc1cc(C(O)C(=O)O)ccc1O (racemic) [DL-4-Hydroxy-3-methoxymandelic acid]
log2(corrected fold change): -0.08249
//
Compound: O=C[C@H](O)[C@@H](O)[C@H](O)CO
log2(corrected fold change): -0.1354
//
Compound: O=C(CO)[C@@H](O)[C@H](O)COP(=O)(O)O [D-Xylulose 5-phosphate]
log2(corrected fold change): 0.3189
//
Compound: Nc1ccn([C@@H]2O[C@H](CO)[C@@H](O)[C@H]2O)c(=O)n1
log2(corrected fold change): 0.2698
//
Compound: O=c1[nH]cnc2c1ncn2[C@H]1C[C@H](O)[C@@H](CO)O1
log2(corrected fold change): 0.06917
//
Compound: Nc1nc2c(ncn2[C@@H]2O[C@H](COP(=O)(O)OP(=O)(O)OP(=O)(O)O)[C@@H](O)[C@H]2O)c(=O)[nH]1 [Guanosine 5-triphosphate]
log2(corrected fold change): 0.3966
//
Compound: O=C(O)C/C=C/CC(=O)O [Trans-beta-Hydromuconic acid]
log2(corrected fold change): 0.04348
//
Compound: NCCc1ccc(O)cc1
log2(corrected fold change): 0.3274
//
Compound: Nc1ncnc2c1ncn2[C@@H]1O[C@H](COP(=O)(O)OP(=O)(O)OP(=O)(O)OC[C@@H]2O[C@H](n3cnc4c(N)ncnc43)[C@@H](O)[C@H]2O)[C@@H](O)[C@H]1O [Diadenosine triphosphate]
log2(corrected fold change): -0.1669
//
Compound: O=C(O)C(=O)CC(O)C(=O)O (stereo not shown) [4-Hydroxy-2-oxoglutaric acid]
log2(corrected fold change): -0.1985
//
Compound: O=C1CC[C@H](C(=O)O)N1
log2(corrected fold change): -0.09309
//
Compound: O=C(O)C(O)COP(=O)(O)O (stereo not shown)
log2(corrected fold change): 0.07991
//
Compound: Cc1c[nH]c(=O)[nH]c1=O
log2(corrected fold change): -0.1153
//
Compound: CCC(=O)NCC(=O)O
log2(corrected fold change): 0.07527
//
Compound: N[C@@H](CC(=O)O)C(=O)N[C@@H](Cc1ccccc1)C(=O)O [L-a-Aspartyl-L-phenylalanine] (H-Asp-Phe-OH)
log2(corrected fold change): -0.1203
//
Compound: CC1CNC(=O)NC1=O (stereo not shown) [Dihydrothymine]
log2(corrected fold change): -0.08021
//
Compound: NC(=O)NCCC(=O)O
log2(corrected fold change): 0.07649
//
Compound: O=Cc1cc(O)ccc1O [2,5-Dihydroxybenzaldehyde]
log2(corrected fold change): 0.1295
//
Compound: C[N+](C)(C)CC=O [Betaine aldehyde]
log2(corrected fold change): -0.1426
//
Compound: Cc1ncc(CO)c(CO)c1O
log2(corrected fold change): -0.04546
//
Compound: O=C(O)C(=O)Cc1ccccc1 [Phenylpyruvate]
log2(corrected fold change): 0.02641
//
Compound: O=C(O)Cc1ccc(O)cc1 [4-Hydroxyphenylacetic acid]
log2(corrected fold change): -0.07366
//
Compound: CN(CC(=O)O)C(=N)N
log2(corrected fold change): 0.06671

====

- Assay system: eIF2Bα (Homo sapiens, UniProt Q14232)
- Construct: made in house; host or cells: E. coli BL21(DE3)
- Assay comment: MIDAS (mass spectrometry integrated with equilibrium dialysis) metabolite binding screen
- Assay context: MIDAS screen, sheet eIF2Ba; metabolites screened in pools 1-4; p-value and q-value given
Listed next: entries and their corresponding log2(corrected fold change).

Molecule: CC(=O)O[C@H](CC(=O)[O-])C[N+](C)(C)C
Assay system: eIF2Bα (Homo sapiens, UniProt Q14232)
log2(corrected fold change): -0.03661
//
Molecule: O=C(O)[C@H]1O[C@H](OP(=O)(O)OP(=O)(O)OC[C@H]2O[C@@H](n3ccc(=O)[nH]c3=O)[C@H](O)[C@@H]2O)[C@H](O)[C@@H](O)[C@@H]1O [UDP-Glucuronate]
Assay system: eIF2Bα (Homo sapiens, UniProt Q14232)
log2(corrected fold change): -0.09562
//
Molecule: C/C=C/C(=O)SCCNC(=O)CCNC(=O)[C@H](O)C(C)(C)COP(=O)(O)OP(=O)(O)OC[C@H]1O[C@@H](n2cnc3c(N)ncnc32)[C@H](O)[C@@H]1OP(=O)(O)O
Assay system: eIF2Bα (Homo sapiens, UniProt Q14232)
log2(corrected fold change): -2.153
//
Molecule: N[C@@H](CS)C(=O)O
Assay system: eIF2Bα (Homo sapiens, UniProt Q14232)
log2(corrected fold change): -0.1221
//
Molecule: O=C(O)Cc1ccccc1O [2-Hydroxyphenylacetic acid]
Assay system: eIF2Bα (Homo sapiens, UniProt Q14232)
log2(corrected fold change): -0.07366
//
Molecule: Nc1ncnc2c1ncn2[C@H]1C[C@H](O)[C@@H](COP(=O)(O)OP(=O)(O)OP(=O)(O)O)O1 [2-Deoxyadenosine 5-triphosphate]
Assay system: eIF2Bα (Homo sapiens, UniProt Q14232)
log2(corrected fold change): -0.07151
//
Molecule: CC[C@H](N)C(=O)O
Assay system: eIF2Bα (Homo sapiens, UniProt Q14232)
log2(corrected fold change): -0.1029
//
Molecule: C[N+](C)(C)CCO
Assay system: eIF2Bα (Homo sapiens, UniProt Q14232)
log2(corrected fold change): -0.1774
//
Molecule: O=C(O)CC(=O)C(=O)O
Assay system: eIF2Bα (Homo sapiens, UniProt Q14232)
log2(corrected fold change): 0.1095
//
Molecule: O=P(O)(O)OC[C@H]1O[C@@H](O)C[C@@H]1O [2-Deoxyribose-5-phosphate]
Assay system: eIF2Bα (Homo sapiens, UniProt Q14232)
log2(corrected fold change): 1.609
//
Molecule: O=C(O)[C@H]1CCCN1
Assay system: eIF2Bα (Homo sapiens, UniProt Q14232)
log2(corrected fold change): -0.05584
//
Molecule: NC(=O)c1ccc[n+](C2OC(COP(=O)(O)OP(=O)(O)OCC3OC(n4cnc5c(=O)[nH]cnc54)C(O)C3O)C(O)C2O)c1 (stereo not drawn) [Nicotinamide hypoxanthine dinucleotide]
Assay system: eIF2Bα (Homo sapiens, UniProt Q14232)
log2(corrected fold change): 0.06307
//
Molecule: C[C@@H](CO)C(=O)O [(S)-Hydroxyisobutyrate]
Assay system: eIF2Bα (Homo sapiens, UniProt Q14232)
log2(corrected fold change): 0.07137
//
Molecule: O=C(O)c1ccc(O)cc1 [4-Hydroxybenzoic acid]
Assay system: eIF2Bα (Homo sapiens, UniProt Q14232)
log2(corrected fold change): 0.1295
//
Molecule: Nc1ccn([C@H]2C[C@H](O)[C@@H](COP(=O)(O)O)O2)c(=O)n1
Assay system: eIF2Bα (Homo sapiens, UniProt Q14232)
log2(corrected fold change): 0.04298
//
Molecule: Nc1ccccc1C(=O)O [Anthranilate]
Assay system: eIF2Bα (Homo sapiens, UniProt Q14232)
log2(corrected fold change): -0.04243
//
Molecule: O=P(O)(O)O[C@H]1O[C@H](CO)[C@@H](O)[C@H]1O [D-Ribose 1-phosphate]
Assay system: eIF2Bα (Homo sapiens, UniProt Q14232)
log2(corrected fold change): 0.3189
//
Molecule: CC(=O)N[C@H]1C(O)O[C@H](CO)[C@H](O)[C@@H]1O (stereo partly drawn)
Assay system: eIF2Bα (Homo sapiens, UniProt Q14232)
log2(corrected fold change): 0.3673
//
Molecule: O=c1[nH]cnc2c1ncn2[C@@H]1O[C@H](CO)[C@@H](O)[C@H]1O
Assay system: eIF2Bα (Homo sapiens, UniProt Q14232)
log2(corrected fold change): 0.3045
//
Molecule: O=P(O)(O)OC[C@H]1O[C@H](OP(=O)(O)O)[C@H](O)[C@@H](O)[C@@H]1O [D-Glucose 1,6-bisphosphate]
Assay system: eIF2Bα (Homo sapiens, UniProt Q14232)
log2(corrected fold change): -0.7792
//
Molecule: Nc1ncnc2[nH]cnc12
Assay system: eIF2Bα (Homo sapiens, UniProt Q14232)
log2(corrected fold change): -0.2309
//
Molecule: NC(CCCC(=O)O)C(=O)O (stereo not drawn)
Assay system: eIF2Bα (Homo sapiens, UniProt Q14232)
log2(corrected fold change): -0.07731
//
Molecule: O=C(O)[C@@H]1CCCN1
Assay system: eIF2Bα (Homo sapiens, UniProt Q14232)
log2(corrected fold change): -0.05584
//
Molecule: Nc1ncnc2c1ncn2[C@@H]1O[C@H](COP(=O)(O)O)[C@@H](O)[C@H]1O [AMP, Adenosine monophosphate]
Assay system: eIF2Bα (Homo sapiens, UniProt Q14232)
log2(corrected fold change): 0.1066
//
Molecule: O=c1[nH]cnc2nc[nH]c12
Assay system: eIF2Bα (Homo sapiens, UniProt Q14232)
log2(corrected fold change): 0.136
//
Molecule: NCC(O)CCC(N)C(=O)O (racemic) [DL-5-Hydroxylysine]
Assay system: eIF2Bα (Homo sapiens, UniProt Q14232)
log2(corrected fold change): -0.09937
//
Molecule: CC(=O)N[C@@H]1[C@@H](O)[C@H](O)[C@@H](CO)O[C@@H]1O
Assay system: eIF2Bα (Homo sapiens, UniProt Q14232)
log2(corrected fold change): 0.3673
